# measured on: T1, HLA-A*02:01 class I complex (conditional p*HLA*02:01, biotinylated heavy chain with beta2-microglobulin) (human, biotinylated heavy chain)
# T1 construct: UV-labile peptide p* is cleaved and exchanged for the test peptide; also called HLA 2.1
# assay details: UV peptide exchange, HLA class I ELISA, % of Pos peptide
Overview of recorded average relative binding (%) for various binders
readout label: average relative binding (%)

1) GLAPPQYLI (also called M150) [TP53.H193Y mutant peptide GLAPPQYLI]
< 15%
2) YLDCGIHSL (also called M034) [CTNNB1.S33C9 mimic peptide YLDCGIHSL]
> 100%
3) YQGSYGFLL (also called M200) [TP53.R110L mutant peptide YQGSYGFLL]
< 15%
4) YMDSGIHFL (also called M035) [CTNNB1.S37F10 mimic peptide YMDSGIHFL]
> 100%
5) YLDCGIHSV (also called M022) [CTNNB1_S33C5 mimic peptide YLDCGIHSV]
> 100%
6) CYMYYYSYLI (also called M106) [PTEN.R173C11 mimic peptide CYMYYYSYLI]
< 15%
7) KMYPVQLWL (also called M133) [TP53_C141Y8 mimic peptide KMYPVQLWL]
> 100%
